System: Mus musculus
Assay: Neurotoxicity in mouse assessed as minimum motor impairment at 100 mg/kg, ip after 0.5 hrs by rotarod test
Format: toxicity, organism-based
Design: dose 100 mg/kg, route intraperitoneal
Settings: in vivo
reported endpoint: Activity

Here is how some molecules turned out for Activity.
Cc1ccc(NC(=S)NC(=O)Nc2ccc3c(c2)C(=O)C(=O)N3Cc2ccccc2)cc1 | Non-toxic
Cc1ccccc1NC(=S)NC(=O)Nc1ccc2c(c1)C(=O)C(=O)N2Cc1ccccc1Cl | Non-toxic
O=C(NC(=S)Nc1ccccc1)Nc1ccc2c(c1)C(=O)C(=O)N2Cc1ccccc1 | Non-toxic
Cc1cccc(NC(=S)NC(=O)Nc2ccc3c(c2)C(=O)C(=O)N3Cc2ccccc2Cl)c1 | Non-toxic
COc1ccc(NC(=S)NC(=O)Nc2ccc3c(c2)C(=O)C(=O)N3Cc2ccccc2)cc1 | Non-toxic

Turning now to a further record.
// sample Cc1ccccc1NC(=S)NC(=O)Nc1ccc2c(c1)C(=O)C(=O)N2Cc1ccccc1 , its Activity was Non-toxic
